Where do the numbers come from? From the supplement of paper PMC12297408.

- System: Plasmodium falciparum NF54/iGP1_RE9H ulg8 stage V gametocytes
- method-description: gametocyte viability (luciferase signal relative to DMSO control) (% of DMSO control); higher = less gametocytocidal activity, active = 50 or less
- test-settings: concentration: 10 µM; exposure time: 72 h
Where a name gives a salt, the structure may show the parent alone. The whole screen tested about 1,300 compounds, of which about 40 (3%) showed activity. This is one part of a sample in which actives are shown more often than they occur.
Documented gametocyte viability across a set of compounds

compound	test-system	gametocyte viability
NC[C@@H]1O[C@H](O[C@H]2[C@@H](O)[C@H](O[C@@H]3[C@@H](O)[C@H](N)C[C@H](N)[C@H]3O[C@H]3O[C@H](CN)[C@@H](O)[C@H](O)[C@H]3N)O[C@@H]2CO)[C@H](N)[C@@H](O)[C@@H]1O [Neomycin sulfate]	Plasmodium falciparum NF54/iGP1_RE9H ulg8 stage V gametocytes	84.7
N/C(=N\C(=O)c1nc(Cl)c(N)nc1N)NCc1ccccc1 [Benzamil hydrochloride]	Plasmodium falciparum NF54/iGP1_RE9H ulg8 stage V gametocytes	81.1
CC1(O)CCOC(=O)C1 (stereo not given)	Plasmodium falciparum NF54/iGP1_RE9H ulg8 stage V gametocytes	93.8
Cc1cccc(C)c1NC(=O)C(C)N (stereo not given) [Tocainide hydrochloride]	Plasmodium falciparum NF54/iGP1_RE9H ulg8 stage V gametocytes	90.2
CCOC(=O)O[C@]1(C(=O)OCCl)CC[C@H]2[C@@H]3CCC4=CC(=O)C=C[C@]4(C)[C@H]3[C@@H](O)C[C@@]21C [Loteprednol etabonate]	Plasmodium falciparum NF54/iGP1_RE9H ulg8 stage V gametocytes	85
CCCCCCNC(=O)n1cc(F)c(=O)[nH]c1=O	Plasmodium falciparum NF54/iGP1_RE9H ulg8 stage V gametocytes	76.4
Cc1cccn2c(=O)c(-c3nnn[nH]3)cnc12	Plasmodium falciparum NF54/iGP1_RE9H ulg8 stage V gametocytes	84.7
CC(=O)c1ccc2c(c1)N(CCCN1CCC(CCO)CC1)c1ccccc1S2	Plasmodium falciparum NF54/iGP1_RE9H ulg8 stage V gametocytes	80.8
CC=C(C)C(=O)OC1C(OC(C)=O)C2(CO)C(O)CC3(C)C(=CCC4C5(C)CCC(OC6OC(C(=O)O)C(OC7OC(CO)C(O)C(O)C7O)C(O)C6OC6OC(CO)C(O)C(O)C6O)C(C)(CO)C5CCC43C)C2CC1(C)C (stereo not given)	Plasmodium falciparum NF54/iGP1_RE9H ulg8 stage V gametocytes	93.2
COc1ccc2[nH]c([S+]([O-])Cc3ncc(C)c(OC)c3C)nc2n1 (stereo not given)	Plasmodium falciparum NF54/iGP1_RE9H ulg8 stage V gametocytes	79.8
C=C(CC)C(=O)c1ccc(OCC(=O)O)c(Cl)c1Cl	Plasmodium falciparum NF54/iGP1_RE9H ulg8 stage V gametocytes	92.5
COC1=CC(=O)C[C@@H](C)[C@]12Oc1c(Cl)c(OC)cc(OC)c1C2=O	Plasmodium falciparum NF54/iGP1_RE9H ulg8 stage V gametocytes	84.6
C=C1/C(=C\C=C2/CCC[C@]3(C)[C@@H]([C@H](C)/C=C/[C@@H](O)C4CC4)CC[C@@H]23)C[C@@H](O)C[C@@H]1O	Plasmodium falciparum NF54/iGP1_RE9H ulg8 stage V gametocytes	64.3
CN1CCN(C(c2ccccc2)c2ccc(Cl)cc2)CC1 (stereo not given) [Chlorcyclizine hydrochloride]	Plasmodium falciparum NF54/iGP1_RE9H ulg8 stage V gametocytes	91.7
C[C@]12CC[C@@H]3c4ccc(O)cc4C[C@@H](CCCCCCCCC[S+]([O-])CCCC(F)(F)C(F)(F)F)[C@H]3[C@@H]1CC[C@@H]2O (stereo not given in full)	Plasmodium falciparum NF54/iGP1_RE9H ulg8 stage V gametocytes	84.7

* * *

- Tested on: Plasmodium falciparum NF54/iGP1_RE9H ulg8 stage V gametocytes
- method-description: gametocyte viability (luciferase signal relative to DMSO control) (% of DMSO control); higher = less gametocytocidal activity, active = 50 or less
- test-settings: concentration: 10 µM; exposure time: 72 h
Structures can show the parent of a compound that is named as a salt. Among all 1,300 compounds or so, about 40 (3%) showed activity. What follows is part of a selection rich in actives, with near analogues and random picks from the rest.

compound	gametocyte viability
NNc1nncc2ccccc12 [Hydralazine hydrochloride]	12.8 (active)
CCCOc1ccc(C(=O)OCCN(CC)CC)cc1N [Proparacaine hydrochloride]	105 (inactive)
CC(C)(C)NC(=O)[C@@H]1C[C@@H]2CCCC[C@@H]2CN1C[C@@H](O)[C@H](Cc1ccccc1)NC(=O)[C@H](CC(N)=O)NC(=O)c1ccc2ccccc2n1 [Saquinavir mesylate]	78.9 (inactive)
CC1(C)O[C@@H]2C[C@H]3[C@@H]4C[C@H](F)C5=CC(=O)C=C[C@]5(C)[C@H]4[C@@H](O)C[C@]3(C)[C@]2(C(=O)CO)O1 [Flunisolide]	88.9 (inactive)
CCOC(=O)NNc1nncc2ccccc12 [Todralazine hydrochloride]	76.5 (inactive)
C[C@H]1O[C@H](O[C@H]2[C@H](O)[C@@H](O)[C@@H](O[C@@H]([C@H](O)[C@@H](O)C=O)[C@H](O)CO)O[C@@H]2CO)[C@H](O)[C@@H](O)[C@@H]1N[C@H]1C=C(CO)[C@@H](O)[C@H](O)[C@H]1O [Acarbose]	83.5 (inactive)

* * *

- System: Plasmodium falciparum NF54/iGP1_RE9H ulg8 stage V gametocytes
- method-description: gametocyte viability (luciferase signal relative to DMSO control) (% of DMSO control); higher = less gametocytocidal activity, active = 50 or less
- test-settings: concentration: 10 µM; exposure time: 72 h
Where a name gives a salt, the structure may show the parent alone. About 40 (3%) of roughly 1,300 compounds showed activity. For the sample, actives were picked, then their nearest neighbours and some compounds at random.
Classes used: class 1 (active), class 0 (inactive)

compound	assigned-label
CN(C)CCN(Cc1ccc(Cl)cc1)c1ccccn1 [Chloropyramine hydrochloride]	class 0
COC1=C(OC)C(=O)C(CCCCCCCCCCO)=C(C)C1=O [Idebenone]	class 0
COc1ccc(CN(CCN(C)C)c2ccccn2)cc1 [Pyrilamine maleate]	class 0
CN1C(=O)OC(C)(C)C1=O [Trimethadione]	class 0
CCC(=O)[C@@]1(C)[C@H](C)C[C@H]2[C@@H]3CCC4=CC(=O)C=C[C@]4(C)[C@H]3[C@@H](O)C[C@@]21C [Rimexolone]	class 0
C#C[C@]1(O)CC[C@H]2[C@@H]3CCC4=CCCC[C@@H]4[C@H]3CC[C@@]21C [Lynestrenol]	class 0
O=C1c2cccc3c2[C@H](CCC3)CN1[C@@H]1CN2CCC1CC2 [Palonosetron hydrochloride]	class 0
CC(=O)OCC(=O)[C@@]12N=C(C)O[C@@H]1C[C@H]1[C@@H]3CCC4=CC(=O)C=C[C@]4(C)[C@H]3[C@@H](O)C[C@@]12C [Deflazacort]	class 0
Cc1cc(-n2c(=O)[nH]c(=O)n(C)c2=O)ccc1Oc1ccc(SC(F)(F)F)cc1 [Toltrazuril]	class 0
COc1cc2nc(N3CCN(C(=O)C4COc5ccccc5O4)CC3)nc(N)c2cc1OC (stereo unspecified) [Doxazosin mesylate]	class 0
N#CC(c1ccc(Cl)cc1)c1c(Cl)cc(-n2ncc(=O)[nH]c2=O)cc1Cl (stereo unspecified) [Diclazuril]	class 0
Cc1ncc(C[n+]2csc(CCO)c2C)c(N)n1 [Thiamine hydrochloride]	class 0
CC(C)(Oc1ccc(CCNC(=O)c2ccc(Cl)cc2)cc1)C(=O)O [Bezafibrate]	class 0
COc1cc(C(=O)OCCCN2CCCN(CCCOC(=O)c3cc(OC)c(OC)c(OC)c3)CC2)cc(OC)c1OC [Dilazep dihydrochloride]	class 0
COc1cc2nc(N3CCN(C(=O)c4ccco4)CC3)nc(N)c2cc1OC [Prazosin hydrochloride]	class 1
CC(=O)N(O)CCCCCNC(=O)CCC(=O)N(O)CCCCCNC(=O)CCC(=O)N(O)CCCCCN [Deferoxamine mesylate]	class 0

* * *

- System: Plasmodium falciparum NF54/iGP1_RE9H ulg8 stage V gametocytes
- method-description: gametocyte viability (luciferase signal relative to DMSO control) (% of DMSO control); higher = less gametocytocidal activity, active = 50 or less
- test-settings: concentration: 10 µM; exposure time: 72 h
Counter-ions that a name gives are not always drawn. Among all 1,300 compounds or so, about 40 (3%) showed activity. Only a selection was taken, and actives are over-represented in it overall.
measured-property: gametocyte viability

compound	test-value
CCN(CC)CCCC(C)Nc1c2ccc(Cl)cc2nc2ccc(OC)cc12 (stereo not drawn) [Quinacrine dihydrochloride dihydrate]	44.5
CCN(CCO)CCCC(C)Nc1ccnc2cc(Cl)ccc12 (stereo not drawn) [Hydroxychloroquine sulfate]	80.8
C[C@]12CC[C@@H]3c4ccc(O)cc4CC[C@H]3[C@@H]1C[C@@H](O)[C@@H]2O [Estriol]	92.2
CN1CCN(CC(=O)N2c3ccccc3C(=O)Nc3cccnc32)CC1 [Pirenzepine dihydrochloride]	83.3
C[C@]12CC[C@@H]3c4ccc(O)cc4CC[C@H]3[C@@H]1CC[C@@H]2O [Estradiol-17 beta]	41.9
N#Cc1cc(NC(=O)C(=O)O)c(Cl)c(NC(=O)C(=O)O)c1 [Lodoxamide]	102
Cc1[nH]c(=O)c(C#N)cc1-c1ccncc1 [Milrinone]	82.1
CCCCC(CC)CNC(=N)NC(=N)NCCCCCCNC(=N)NC(=N)NCC(CC)CCCC (stereo not drawn) [Alexidine dihydrochloride]	0.515
